Origin of measurements: patent US20140295512A1

protocol: KARI assay of purified S. exigua KARI and variants with NADH (Examples 6-9)
Type: biochemical
# key: entry, value: kcat/Km ratio NADH/NADPH (cofactor specificity)
endpoint name: kcat/Km ratio NADH/NADPH (cofactor specificity)

* Se1_KARI^13G6: S. exigua KARI variant G60V, I95A (protein, UniProt D0WGK0 1-342, looked up, variant G60V I95A) Ketol-acid reductoisomerase …: MSVKTKEKEMAVTILYEQDVDPKVIQGLKVGIIGYGSQGHAHALNLMDSGVDVRVGLREVSSSWKTAEEAGLKVTDMDTAAEEADVIMVLVPDEAQPKVYQEHIAAHLKAGNTLAFAHGFNIHYGYIVPPEDVNVIMCAPKGPGHIVRRQFTEGSGVPDLACVQQDATGNAWDIVLSYCWGVGGARSGIIKATFAEETEEDLFGEQAVLCGGLVELVKAGFETLTEAGYPPELAYFECYHEMKMIVDLMYESGIHFMNYSISNTAEYGEYYAGPKVINEQSREAMKEILKRIQDGSFAQEFVDDCNNGHKRLLEQREAINTHPIETTGAQIRSMFSWIKKED | 0.03
* Se1_KARI^1AA10: S. exigua KARI variant S61C, S63D, I95T (protein, UniProt D0WGK0 1-342, looked up, variant S61C S63D I95T) Ketol-acid reductoisomerase …: MSVKTKEKEMAVTILYEQDVDPKVIQGLKVGIIGYGSQGHAHALNLMDSGVDVRVGLREGCSDWKTAEEAGLKVTDMDTAAEEADVIMVLVPDETQPKVYQEHIAAHLKAGNTLAFAHGFNIHYGYIVPPEDVNVIMCAPKGPGHIVRRQFTEGSGVPDLACVQQDATGNAWDIVLSYCWGVGGARSGIIKATFAEETEEDLFGEQAVLCGGLVELVKAGFETLTEAGYPPELAYFECYHEMKMIVDLMYESGIHFMNYSISNTAEYGEYYAGPKVINEQSREAMKEILKRIQDGSFAQEFVDDCNNGHKRLLEQREAINTHPIETTGAQIRSMFSWIKKED | 7.1
* Se1_KARI^4E10: S. exigua KARI variant L57V, R58P, S61C (protein, UniProt D0WGK0 1-342, looked up, variant L57V R58P S61C) Ketol-acid reductoisomerase …: MSVKTKEKEMAVTILYEQDVDPKVIQGLKVGIIGYGSQGHAHALNLMDSGVDVRVGVPEGCSSWKTAEEAGLKVTDMDTAAEEADVIMVLVPDEIQPKVYQEHIAAHLKAGNTLAFAHGFNIHYGYIVPPEDVNVIMCAPKGPGHIVRRQFTEGSGVPDLACVQQDATGNAWDIVLSYCWGVGGARSGIIKATFAEETEEDLFGEQAVLCGGLVELVKAGFETLTEAGYPPELAYFECYHEMKMIVDLMYESGIHFMNYSISNTAEYGEYYAGPKVINEQSREAMKEILKRIQDGSFAQEFVDDCNNGHKRLLEQREAINTHPIETTGAQIRSMFSWIKKED | 0.1
